Assay: physchem
Details: deionized water, 37 °C, thermodynamic from solid
measuredMetric: solubility (mg/mL)
Give the value, in units of mg/mL, as a plain number.

Reported solubility for C=C1C(=O)O[C@H]2[C@H]1CCC(C)=C1CC[C@@](C)(O)[C@@H]12 [MCL, Micheliolide] was 0.062

###

Experiment: Conversion rate of salt-form prodrugs to parent compound in mouse plasma
Type: in vitro ADME
Conditions: conversion to Compound 1, mouse plasma, 37 °C, 2 h
measuredMetric: Release rate (%)
Give the value, in units of %, as a plain number.

Please review the following examples before continuing.
>  <compound>
CN(C)C[C@@H]1C(=O)O[C@H]2[C@H]1CC[C@@]1(C)C[C@]13CC[C@@](C)(O)[C@H]23 [compound 41]

>  <experimentalValue>
17.2

$$$$
>  <compound>
CCCN(CCC)C[C@@H]1C(=O)O[C@H]2[C@H]1CC[C@@]1(C)C[C@]13CC[C@@](C)(O)[C@H]23

>  <experimentalValue>
14.2

$$$$
>  <compound>
CCCCN(CCCC)C[C@@H]1C(=O)O[C@H]2[C@H]1CC[C@@]1(C)C[C@]13CC[C@@](C)(O)[C@H]23

>  <experimentalValue>
13.6

$$$$

Moving on to the next compound.
Reported Release rate for "C[C@@]12CC[C@@H]3[C@H](OC(=O)[C@H]3CN3CCCCCCC3)[C@@H]3[C@]1(CC[C@@]3(C)O)C2" was 14.5
